- Target Entity: T1, human plasma kallikrein (human, UniProt P03952 20-390; P03952 391-638)
- T1 construct: also called pKal; human pKal
- T1 sequence (P03952 20-390, chain 1 of 2): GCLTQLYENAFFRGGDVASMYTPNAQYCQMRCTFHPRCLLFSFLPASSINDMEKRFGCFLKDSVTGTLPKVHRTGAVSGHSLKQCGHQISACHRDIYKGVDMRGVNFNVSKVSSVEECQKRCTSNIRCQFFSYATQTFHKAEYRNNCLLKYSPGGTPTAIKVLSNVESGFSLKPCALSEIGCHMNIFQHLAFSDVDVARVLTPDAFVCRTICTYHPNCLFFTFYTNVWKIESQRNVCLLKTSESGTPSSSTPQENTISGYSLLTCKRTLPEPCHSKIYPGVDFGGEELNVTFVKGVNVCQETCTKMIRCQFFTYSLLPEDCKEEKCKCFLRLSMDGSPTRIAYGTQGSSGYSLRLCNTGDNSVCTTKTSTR
- T1 sequence (P03952 391-638, chain 2 of 2): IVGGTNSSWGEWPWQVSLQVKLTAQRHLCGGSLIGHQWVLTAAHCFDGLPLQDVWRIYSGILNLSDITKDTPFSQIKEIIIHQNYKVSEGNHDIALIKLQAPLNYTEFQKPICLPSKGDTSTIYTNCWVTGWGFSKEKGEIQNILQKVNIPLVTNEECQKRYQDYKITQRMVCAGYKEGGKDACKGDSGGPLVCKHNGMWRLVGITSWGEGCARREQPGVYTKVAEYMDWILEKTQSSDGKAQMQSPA
- Protocol Notes: apparent inhibition constant (Ki,app) against human pKal, enzyme inhibition
The entries below are paired with their reported Ki.
Readout Type: Ki (nM)

Binder | Readout Type | Unit Spec | Observed Value
X67-C09 (antibody, V domains shown, Single point mutant (F to G at P2 of HC CDR3) of M142-H08; Only variable domains and the start of CH1 are printed; also called 559A-X67-C09) VH: EVQLLESGGGLVQPGGSLRLSCAASGFTFSAYSMIWVRQAPGKGLEWVSYIRPSGGRTTYADSVKGRFTISRDNSKNTLYLQMNSLRAEDTAVYYCARGGLLLWGRELKSNYFDYWGQGTLVTVSS VL: DIQMTQSPSSLSAFVGDRVTITCRASQPIDNYLNWYHQKPGKAPKLLIYAASRLQSGVPSRLSGSGFGTDFTLTISSLQPEDFGNYYCQQSYTVPYTFGGGTKVEIR | Ki | nM | 8.6
M146-E12 (Fab, V domains shown, Printed HC runs from VH into the start of CH1) VH: EVQLLESGGGLVQPGGSLRLSCAASGFTFSRYIMHWVRQAPGKGLEWVSSISPSGGLTSYADSVKGRFTISRDNSKNTLYLQMNSLRAEDTAVYYCAREFENAYHYYYYGMDVWGQGTTVTVSS VL: DIQMTQSPSSLSASVGDRVTITCRASGDIGNALGWYQQKPGKAPRLLISDASTLQSGVPLRFSGSGSGTEFTLTISSLQPEDFATYYCLQGYNYPRTFGQGTKLEIR | Ki | nM | 2.2
M137-E12 (Fab, V domains shown, Printed HC runs from VH into the start of CH1) VH: EVQLLESGGGLVQPGGSLRLSCAASGFTFSDYRMQWVRQAPGKGLEWVSVIVPSGGNTMYADSVKGRFTISRDNSKNTLYLQMNSLRAEDTAVYYCARGGPGSSIAARRAPTGYYGMDVWGQGTTVTVSS VL: QSVLIQPPSVSGIPGQRVTISCSGNNSNFGSNTVTWYQQLPGTAPKLLIYSDSRRPSGVPDRFSGSRSDTSASLAISGLQSEDEAEYHCAAWDDSLNGVFGGGTKLTVL | Ki | nM | 79
X67-F10 (antibody, V domains shown, Single point mutant (F to T at P2 of HC CDR3) of M142-H08; Only variable domains and the start of CH1 are printed; also called 559A-X67-F10) VH: EVQLLESGGGLVQPGGSLRLSCAASGFTFSAYSMIWVRQAPGKGLEWVSYIRPSGGRTTYADSVKGRFTISRDNSKNTLYLQMNSLRAEDTAVYYCARGGLLLWTRELKSNYFDYWGQGTLVTVSS VL: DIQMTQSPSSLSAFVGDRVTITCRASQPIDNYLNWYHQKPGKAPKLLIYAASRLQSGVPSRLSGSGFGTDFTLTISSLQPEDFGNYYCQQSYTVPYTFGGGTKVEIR | Ki | nM | 1.3
M29-D09 (Fab, V domains shown, Printed HC runs from VH into the start of CH1; also called 559A-M29-D09; 559A-M0029-D09) VH: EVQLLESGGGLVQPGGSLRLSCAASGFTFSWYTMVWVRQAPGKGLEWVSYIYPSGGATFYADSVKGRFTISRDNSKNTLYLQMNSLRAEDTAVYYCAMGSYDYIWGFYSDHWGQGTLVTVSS VL: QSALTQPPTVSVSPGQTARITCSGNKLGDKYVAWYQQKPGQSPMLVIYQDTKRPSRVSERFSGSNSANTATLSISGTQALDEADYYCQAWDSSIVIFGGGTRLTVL | Ki | nM | 0.7
M7-B04 (Fab, V domains shown, Printed HC runs from VH into the start of CH1) VH: EVQLLESGGGLVQPGGSLRLSCAASGFTFSWYSMVWVRQAPGKGLEWVSSISPSGGLTNYADSVKGRFTISRDNSKNTLYLQMNSLRAEDTAVYYCARHTAARPFYYYYMDVWGKGTTVTVSS VL: QSALTQPASVSGSPGQSITISCTGTNSDVGNYNLVSWYQQHPGEAPKLLIYEVNKRPSGVSNRFSGSKSGNTASLTISGLQAEDEADYLCCSYAGNRNFYVFGAGTKVTVL | Ki | nM | 54
